Numbers sourced from patent US8026359B2.

- Test system: Septoria nodorum
- TEST: Test C: wheat glume blotch, preventive spray on wheat seedlings
- Type: in vivo
- EXPERIMENTAL SETUP: 200 ppm; 100 = 100% disease control, 0 = no control relative to controls
OBSERVATION TYPE: Test C disease control rating (%)
The response must be a number in % with no trailing unit.

Would you please look over these solved cases?
- COMPOUND: "Clc1cccc(Nc2cc(-c3ccnc(N[C@H]4CCOC4)n3)ccn2)c1 [Compound 72]"
  Test C disease control rating, %: 95
- COMPOUND: "COCC(C)Nc1nccc(-c2ccnc(Nc3c(C)cc(C)cc3Cl)c2)n1 (centres unmarked) [Compound 87]"
  Test C disease control rating, %: 100
- COMPOUND: "Fc1cccc(Nc2cc(-c3ccnc(NC4CC4)n3)ccn2)c1 [Compound 65]"
  Test C disease control rating, %: 96
- COMPOUND: "COCC(C)Nc1nccc(-c2ccnc(Nc3c(F)cccc3Cl)c2)n1 (centres unmarked) [Compound 79]"
  Test C disease control rating, %: 99

Req: Tell us which Test C disease control rating value is on record for CC(CO)Nc1nccc(-c2ccnc(Nc3cccc(F)c3)c2)n1 (centres unmarked) [Compound 48]
Resp: 87

Req: Tell us which Test C disease control rating value is on record for Cc1cc(C)c(Nc2cc(-c3ccnc(NC4CCOCC4)n3)ccn2)c(Cl)c1 [Compound 90]
Resp: 100

Req: Tell us which Test C disease control rating value is on record for COCC(C)Nc1nccc(-c2ccnc(Nc3c(C)ccc4ccccc34)c2)n1 (centres unmarked) [Compound 86]
Resp: 94

Req: Tell us which Test C disease control rating value is on record for COC[C@H](C)Nc1nccc(-c2ncnc(Nc3ccc(Cl)cc3)n2)n1 [Compound 15]
Resp: 92

Req: Tell us which Test C disease control rating value is on record for COCC(C)Nc1nccc(-c2ccnc(Nc3c(C)cc(Cl)cc3Cl)c2)n1 (centres unmarked) [Compound 93]
Resp: 100

====

- System: Septoria nodorum
- TEST: Test C: wheat glume blotch, preventive spray on wheat seedlings
- Format: in vivo
- EXPERIMENTAL SETUP: 200 ppm; 100 = 100% disease control, 0 = no control relative to controls
Reported values of Test C disease control rating for individual entries
The response must be a number in % with no trailing unit.

- MOLECULE: "CCNc1nccc(-c2ccnc(Nc3cccc(F)c3)c2)n1"
  Test C disease control rating (%): 99
- MOLECULE: "COCC(C)Nc1nccc(-c2ccnc(Nc3cc(F)ccc3C)c2)n1 (stereo not drawn)"
  Test C disease control rating (%): 94
- MOLECULE: "COC[C@H](C)Nc1nccc(-c2ncnc(Nc3ccccc3F)n2)n1"
  Test C disease control rating (%): 99
- MOLECULE: "COC[C@H](C)Nc1nccc(-c2ncnc(Nc3ccc(C)c([N+](=O)[O-])c3)n2)n1"
  Test C disease control rating (%): 100
- MOLECULE: "Fc1cccc(Nc2cc(-c3ccnc(NC4CCOC4)n3)ccn2)c1 (stereo not drawn)"
  Test C disease control rating (%): 99
- MOLECULE: "COCC(C)Nc1nccc(-c2ccnc(Nc3c(Cl)cccc3Cl)c2)n1 (stereo not drawn)"
  Test C disease control rating (%): 99
- MOLECULE: "COCC(C)Nc1nccc(-c2ccnc(Nc3cccc([N+](=O)[O-])c3)c2)n1 (stereo not drawn)"
  Test C disease control rating (%): 98
- MOLECULE: "FC(F)(F)c1cccc(Cl)c1Nc1cc(-c2ccnc(NC3CCOCC3)n2)ccn1"
  Test C disease control rating (%): 99

The record that follows has no Test C disease control rating shown yet.
Req: Report value only: Test C disease control rating, Septoria nodorum, COCC(C)Nc1nccc(-c2ccnc(Nc3c(C)ccc(Cl)c3C)c2)n1 (stereo not drawn)
Resp: 100

====

- Tested on: Septoria nodorum
- TEST: Test C: wheat glume blotch, preventive spray on wheat seedlings
- Format: in vivo
- EXPERIMENTAL SETUP: 200 ppm; 100 = 100% disease control, 0 = no control relative to controls
- From the text: General protocol for preparing test suspensions for Tests A-R: The test compounds were first dissolved in acetone in an amount equal to 3% of the final volume and then suspended at the desired concentration (in ppm) in acetone and purified water (50/50 mix) containing 250 ppm of the surfactant Trem® 014 (polyhydric alcohol esters). […]
OBSERVATION TYPE: Test C disease control rating (%)
The response must be a number in % with no trailing unit.

- COMPOUND: "CCNNc1nccc(-c2ccnc(Nc3cccc(F)c3)c2)n1"
  UNITS TEXT: "%"
  Test C disease control rating: 99
- COMPOUND: "COCCCNc1nccc(-c2ccnc(Nc3cccc(F)c3)c2)n1"
  UNITS TEXT: "%"
  Test C disease control rating: 97
- COMPOUND: "COCC(C)Nc1nccc(-c2ccnc(Nc3ccccc3F)c2)n1 (centres unmarked)"
  UNITS TEXT: "%"
  Test C disease control rating: 96
- COMPOUND: "COC[C@H](C)Nc1nccc(-c2ncnc(Nc3ccc(C)cc3)n2)n1"
  UNITS TEXT: "%"
  Test C disease control rating: 100
- COMPOUND: "COCC(C)(C)Nc1nccc(-c2ncnc(Nc3cccc(F)c3)n2)n1"
  UNITS TEXT: "%"
  Test C disease control rating: 100
- COMPOUND: "COC[C@H](C)Nc1nccc(-c2ncnc(Nc3cc(Cl)cc(Cl)c3)n2)n1"
  UNITS TEXT: "%"
  Test C disease control rating: 99

Req: Tell us which Test C disease control rating value is on record for `COC(C)(C)Nc1nccc(-c2ncnc(Nc3cc(F)cc(F)c3)n2)n1`
Resp: 100

Req: Tell us which Test C disease control rating value is on record for COCC(C)Nc1nccc(-c2ccnc(Nc3cccc(Cl)c3F)c2)n1 (centres unmarked)
Resp: 97
